# Tested on: A498 renal
# procedure_text: NCI tumour cell line growth inhibition, 48 h
Would you mind telling me the reported TGI of each entry?

Item Cc1ccc(CC(Cc2ccccc2C)C(=O)O)c(C(=O)O)c1 (configuration not stated) has what recorded TGI?
> 100 µM

Then what about the molecule O=C(O)c1ccccc1C(=O)NCC1S(=O)(=O)OCCOS1(=O)=O ?
> 100 µM

Follow-up item: CC(C)(C)C1=CC(=C(P(=O)(O)O)P(=O)(O)O)C=C(C(C)(C)C)C1=O
> 50 µM

Another molecule: CCOC(=O)C1=CCCC[C@H]1S(=O)(=O)Nc1ccc(F)cc1Cl
> 100 µM

Moving on to the next molecule: CC(=O)Oc1ccccc1
> 100 µM

Another molecule to look at: O=C(O)CSc1n[nH]c(=O)[nH]c1=O
> 100 µM

Entry CCOC1CN=C(Nc2cccc3ccccc23)S1 (configuration not stated) please
> 10 µM
